// data source = BindingDB's records for doi:10.1016/j.ejmech.2018.01.013

experiment summary: Inhibition of human 20S constitutive proteasome beta-1 using Z-LLE-betaNA as substrate incubated for 15 mins measured for 45 mins by fluorescence assay
pIC50: −log10 of the molar value.
We begin with a simple list: items and their reported pIC50.
property measured: pIC50

• NCCCC[C@H](NC(=O)[C@@H](N)Cc1ccc(OCc2ccccc2)cc1)C(=O)N[C@@H](C[C@]1(O)C(=O)Nc2ccccc21)C(=O)NCc1ccccc1 = 4.89
• C[C@H](NC(=O)[C@H](Cc1ccc(OCc2ccccc2)cc1)NC(=O)OC(C)(C)C)C(=O)N[C@@H](C[C@]1(O)C(=O)N(C)c2ccccc21)C(=O)NCc1ccccc1 = 4.94
• C[C@H](NC(=O)Cc1cccc(Oc2ccccc2)c1)C(=O)N[C@@H](C[C@]1(O)C(=O)Nc2ccccc21)C(=O)NCc1ccccc1 = 4.40
• C[C@H](NC(=O)[C@H](Cc1ccc(OCc2ccccc2)cc1)NC(=O)OC(C)(C)C)C(=O)N[C@@H](C[C@]1(O)C(=O)Nc2ccccc21)C(=O)NCC(C)(C)C = 4.82
• C[C@H](NC(=O)[C@H](Cc1ccc(OCc2ccccc2)cc1)NC(=O)OC(C)(C)C)C(=O)N[C@@H](C[C@]1(O)C(=O)Nc2ccccc21)C(=O)NC(c1ccccc1)c1ccccc1 = 5.66
• CC(C)(C)OC(=O)N[C@@H](Cc1ccc(OCc2ccccc2)cc1)C(=O)N[C@@H](CC(N)=O)C(=O)N[C@@H](C[C@]1(O)C(=O)Nc2ccccc21)C(=O)NCc1ccccc1 = 4.70

###

We begin with a simple list: items and their reported IC50.
experiment summary: Inhibition of human 20S constitutive proteasome beta-1 using Z-LLE-betaNA as substrate incubated for 15 mins measured for 45 mins by fluorescence assay
property measured: IC50 (µM)

* C[C@H](NC(=O)[C@H](Cc1ccc(OCc2ccccc2)cc1)NC(=O)OC(C)(C)C)C(=O)N[C@@H](C[C@@]1(O)C(=O)N(C)c2ccccc21)C(=O)NCc1ccccc1 | 13.4
* C[C@H](NC(=O)[C@H](Cc1ccc(OCc2ccccc2)cc1)NC(=O)OC(C)(C)C)C(=O)N[C@@H](C[C@@]1(O)C(=O)Nc2ccccc21)C(=O)NCc1ccccc1 | 17.2
* C[C@H](NC(=O)c1ccc(OCc2ccccc2)cc1)C(=O)N[C@@H](C[C@]1(O)C(=O)Nc2ccccc21)C(=O)NCc1ccccc1 | 35
* C[C@H](NC(=O)[C@H](Cc1ccc(OCc2ccccc2)cc1)NC(=O)OC(C)(C)C)C(=O)N[C@@H](C[C@]1(O)C(=O)Nc2ccccc21)C(=O)NCCc1ccccc1 | 4.9
* C[C@H](NC(=O)[C@H](Cc1ccc(OCc2ccccc2)cc1)NC(=O)OC(C)(C)C)C(=O)N[C@@H](C[C@]1(O)C(=O)Nc2ccccc21)C(=O)NCc1ccc(-c2ccccc2)cc1 | 17.6
* C[C@@H](NC(=O)[C@H](Cc1ccc(OCc2ccccc2)cc1)NC(=O)OC(C)(C)C)C(=O)N[C@@H](C[C@]1(O)C(=O)Nc2ccccc21)C(=O)NCc1ccccc1 | 17.1
* C[C@H](NC(=O)[C@@H](N)Cc1ccc(OCc2ccccc2)cc1)C(=O)N[C@@H](C[C@]1(O)C(=O)Nc2ccccc21)C(=O)NCc1ccccc1 | 30
* C[C@H](NC(=O)[C@H](Cc1ccc(OCc2ccccc2)cc1)NC(=O)OC(C)(C)C)C(=O)N[C@@H](C[C@]1(O)C(=O)Nc2ccccc21)C(=O)NCc1cccc2ccccc12 | 2.14
* CC(O)[C@@H](NC(=O)c1ccc(OCc2ccccc2)cc1)C(=O)N[C@@H](C[C@]1(O)C(=O)Nc2ccccc21)C(=O)NCc1ccccc1 (some centres undefined) | 31.9
